The reported measurements were obtained from patent US20170305994A1.

Molecular target: T1, human DR3 (full length, on cells) (human, UniProt Q93038 25-417)
T1 construct: also called hDR3; Death Receptor 3
T1 sequence: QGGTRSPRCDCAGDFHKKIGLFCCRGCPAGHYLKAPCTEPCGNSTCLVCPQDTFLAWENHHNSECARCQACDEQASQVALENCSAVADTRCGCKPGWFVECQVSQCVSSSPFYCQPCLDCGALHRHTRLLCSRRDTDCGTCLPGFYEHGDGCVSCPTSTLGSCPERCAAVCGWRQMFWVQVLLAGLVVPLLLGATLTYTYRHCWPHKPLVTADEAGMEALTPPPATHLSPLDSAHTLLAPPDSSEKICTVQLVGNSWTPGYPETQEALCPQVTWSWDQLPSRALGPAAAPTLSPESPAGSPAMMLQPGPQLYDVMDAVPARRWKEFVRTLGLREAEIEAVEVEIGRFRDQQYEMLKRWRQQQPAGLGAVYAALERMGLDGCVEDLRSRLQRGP
Test: flow cytometry on IL-12/IL-18/TL1A activated CD4+ T cells, 1 µg/ml
experimental.endpoint: MFI (MFI)
Give your result in MFI as a bare value.

{"columns": ["binder", "MFI / MFI"],
 "data": [
  ["0087 (Fab from papain cleavage of mAb 0072) (Fab, V domains shown, murine IgG1 Fab by papain cleavage) VH: EVKLVESGGGLVKPGGSLKLSCSASGFAFSNYDMSWVRQTPEKRLEWVAAFSSDGYTFYPDSLKGRFTISRDNARNTLYLQMSSLGSEDTALYCCARHADYANYPVMDYWGQGTSVTVSS VL: DIVLAQSPASLLVSLGQRATISCRASKSVSTSGYSYMHWYQQKPGQPPKLLIYLASNLESGVPARFSGSGSGTDFTLNIHPVEEEDAATYYCQHSRELPLTFGAGTMLELKR", 500]
]}

Query :: Fill blank: measured MFI of the binder 0072 (murine mAb purified from hybridoma 27F44A2) (antibody, mouse IgG1, V domains shown, murine IgG1, kappa; also called 0084) VH: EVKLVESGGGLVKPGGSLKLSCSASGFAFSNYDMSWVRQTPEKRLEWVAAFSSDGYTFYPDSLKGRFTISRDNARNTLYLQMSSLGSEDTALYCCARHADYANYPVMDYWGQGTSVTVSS VL: DIVLAQSPASLLVSLGQRATISCRASKSVSTSGYSYMHWYQQKPGQPPKLLIYLASNLESGVPARFSGSGSGTDFTLNIHPVEEEDAATYYCQHSRELPLTFGAGTMLELKR is ____.
Result :: 1300

Query :: Next binder: 0073 (murine mAb purified from hybridoma 28F26A3) (antibody, V domains shown, murine IgG2a, kappa; also called 0085) VH: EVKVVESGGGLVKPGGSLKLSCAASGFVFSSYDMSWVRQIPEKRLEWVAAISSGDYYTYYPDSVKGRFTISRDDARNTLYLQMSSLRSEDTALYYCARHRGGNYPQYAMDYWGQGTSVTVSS VL: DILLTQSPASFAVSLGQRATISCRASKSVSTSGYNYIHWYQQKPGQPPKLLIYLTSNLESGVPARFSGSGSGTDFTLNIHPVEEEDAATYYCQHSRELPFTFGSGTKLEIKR
Result :: 1300

Query :: Now give it for 0088 (Fab from papain cleavage of mAb 0073) (Fab, V domains shown, murine IgG2a Fab by papain cleavage) VH: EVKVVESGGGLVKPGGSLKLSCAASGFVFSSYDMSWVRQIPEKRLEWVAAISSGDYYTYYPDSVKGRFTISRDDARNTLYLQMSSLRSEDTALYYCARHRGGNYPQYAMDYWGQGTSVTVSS VL: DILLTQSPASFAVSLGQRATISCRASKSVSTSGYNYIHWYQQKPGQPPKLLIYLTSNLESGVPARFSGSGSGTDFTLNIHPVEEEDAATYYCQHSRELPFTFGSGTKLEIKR too.
Result :: 500
